Origin of the recorded values: the RNAGym collection of RNA variant scans (doi:10.7554/elife.90254)

B1: LINE1-full (parent)
chain: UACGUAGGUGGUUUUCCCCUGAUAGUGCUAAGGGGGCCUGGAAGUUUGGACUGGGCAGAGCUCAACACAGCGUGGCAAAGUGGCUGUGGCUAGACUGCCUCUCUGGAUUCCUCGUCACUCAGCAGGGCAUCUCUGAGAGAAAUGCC

# Variants of: B1
# experiment: self-cleavage, relative activity (ratio to wild type); higher = more cleavage; in vitro, sequencing; the parent is a self-cleaving ribozyme
measurement-label: self-cleavage
Just the number, please, no unit after it.

Solved cases (2 shown):
In [3]: df
Out[3]:
   variant_spec  recorded_number
0    A64G A124G             0.28
1    A65U A121G             0.21

Prompt: Look up self-cleavage for this variant: U47C G54A
Response: 0.59

Prompt: Look up self-cleavage for this variant: U39G U85A
Response: 0

Prompt: Look up self-cleavage for this variant: U47G U73A
Response: 1.18

Prompt: Look up self-cleavage for this variant: G36U U119A
Response: 1.4

Prompt: Look up self-cleavage for this variant: C18A U143C
Response: 0.56

Prompt: Look up self-cleavage for this variant: A92C C113U
Response: 0.14

Prompt: Look up self-cleavage for this variant: U5C G74U
Response: 0.38

Prompt: Look up self-cleavage for this variant: G40A G82A
Response: 1.73

Prompt: Look up self-cleavage for this variant: A79U
Response: 1.85
